Catalogue of compounds with associated TGI
Test system: MALME-3M melanoma
Experiment: NCI tumour cell line growth inhibition, 48 h

| Compound | Measured target | TGI |
| --- | --- | --- |
| CN(C)C1=Nc2ccccc2C(=S)N2CSCC12 (configuration not stated) | MALME-3M melanoma | 51.8 µM |
| N#Cc1c(-c2ccccc2)[nH]c2ccccc2c1=O | MALME-3M melanoma | > 100 µM |
| CCOC(=O)C1=C(C)N(N)C(=S)NC1c1ccc(C)cc1 (configuration not stated) | MALME-3M melanoma | > 100 µM |
| O=C1CSC(Cc2nc3ccccc3[nH]2)=N1 | MALME-3M melanoma | 18.4 µM |
| O=c1c(-c2ccccc2)c(SCCCN2CCN(c3cccc(Cl)c3)CC2)n(-c2ccccc2)c(=S)n1-c1ccccc1 | MALME-3M melanoma | > 100 µM |
| Nc1nc(Cl)cc(NCCO)n1 | MALME-3M melanoma | > 100 µM |
| O=C(CC(c1ccccc1)N1CCCCC1)c1ccccc1 (configuration not stated) | MALME-3M melanoma | 30.7 µM |
| O=C(O)c1cccc(OCCO)c1 | MALME-3M melanoma | > 100 µM |
| COC(=O)/C=C/C1C(C(=O)OC)C2(C(=O)OC)CCC1(C(=O)OC)N2 (configuration not stated) | MALME-3M melanoma | > 100 µM |
| CCCCCc1c(C)[nH]c(/C=C2\N=C(c3ccc[nH]3)C=C2CC)c1C | MALME-3M melanoma | 0.187 µM |
| O=C1NC(=O)C(CCO)(c2ccccc2)C(=O)N1 | MALME-3M melanoma | > 100 µM |
| O=C(C(=O)N1CCc2ccccc21)c1c[nH]c2ccccc12 | MALME-3M melanoma | > 10 µM |

====

System: OVCAR-4 ovarian
Experiment: NCI tumour cell line growth inhibition, 48 h
Observation type: TGI

| Compound | Measured target | Reported result |
| --- | --- | --- |
| Cc1cc(C)n(CCNCCn2nc(C)cc2C)n1 | OVCAR-4 ovarian | > 100 µM |
| COc1cc2c(cc1OC)C13CCN4CC5=CCOC6CC(=O)N2C1C6C5CC43O (stereo not drawn) | OVCAR-4 ovarian | > 100 µM |
| O=C(Nc1cccc(Cl)c1Cl)c1cccc(NC2=C(Cl)C(=O)N(Cc3ccccc3)C2=O)c1 | OVCAR-4 ovarian | > 100 µM |

====

Test system: CAKI-1 renal
Assay: NCI tumour cell line growth inhibition, 48 h
Observation type: TGI

| Compound | Observation type | Reported result |
| --- | --- | --- |
| Nc1ccc(C(=O)NN2C(=O)C(Cl)C2c2ccccc2Cl)cc1 (stereo not drawn) | TGI | 26.9 µM |
| O=c1[nH]cc(COCC(F)(F)C(F)(F)C(F)(F)C(F)F)c(=O)[nH]1 | TGI | > 100 µM |
| CC1(C)OCC2OC3(c4nc(C#N)c(N)o4)OC(C)(C)OC3C2O1 (stereo not drawn) | TGI | > 100 µM |
| CO[C@H]1[C@@H](O)[C@@H](C)O[C@@H](O[C@H]2CC[C@@]3(C)[C@H](CC[C@@H]4[C@@H]3CC[C@]3(C)[C@@H](C5=CC(=O)OC5)[C@@H](OC(C)=O)C[C@]43O)C2)[C@@H]1O | TGI | 0.0719 µM |
| N#CC(/C(=N/NC(=O)C(=O)NN)C(=O)NC12CC3CC(CC(C3)C1)C2)c1ccccc1 (stereo not drawn) | TGI | > 100 µM |
| C[C@H]1[C@H](C)CC[C@]2(C)CC[C@]3(C)C(=C[C@@H](O)[C@@H]4[C@@]5(C)[C@H](O)[C@@H](O)[C@H](O)C(C)(C)[C@@H]5CC[C@]43C)[C@H]12 | TGI | > 100 µM |
| O=C(O)c1nc(-c2ccccn2)c(-c2ccccn2)nc1C(=O)O | TGI | 8.5 µM |
| CCN1C(=O)N(CC)C2C1NC(=S)N2/N=C/C=C/c1cccs1 (stereo not drawn) | TGI | > 100 µM |

====

System: HCC-2998 colon
Assay: NCI tumour cell line growth inhibition, 48 h; in the data active means GI50 below about 0.43 µM; inactive means the rest
Classes used: True for active, False for inactive

| Compound | Group label |
| --- | --- |
| CC(=O)Oc1ccccc1C(=O)N=C1[Se]CCCN1C(=O)c1ccccc1OC(C)=O | False |
| CCN(CC)CCOc1ccc(/C(=C(\C)c2ccc(F)c(OC)c2)c2ccc(Cl)cc2)cc1 | False |
| Nc1nc(Br)nc2c1ncn2C1CC(O)C(CO)O1 (stereo unspecified) | False |
| CC(=O)c1c(CBr)n([O-])c2ccccc2[n+]1=O | False |
| CC(=O)Oc1ccc(Nc2c3ccccc3nc3ccccc23)cc1 | False |
| CCOC(=O)N1CCN(C(=O)c2ccc(C(F)(F)F)nc2Nc2cc(Cl)ccc2C)CC1 | False |
| O=C(CN(C1CCCCC1)C1CCCCC1)Nc1ccc(S(=O)(=O)c2ccc(NC(=O)CN(C3CCCCC3)C3CCCCC3)cc2)cc1 | False |
| CCN(CC)CC(C)(C)C(=O)/C=C/c1ccc(Cl)c(Cl)c1 | False |
| Nc1c(C(=O)N/N=C/c2ccc(-c3ccc(Cl)cc3)o2)cnn1-c1ccnc2c(C(F)(F)F)cccc12 | False |
| C#C[C@]1(O)CC[C@H]2[C@@H]3CC=C4c5sc(Nc6ccccc6)nc5CC[C@]4(C)[C@H]3CC[C@@]21C | False |
| O=C(CCCN1CC=C(n2c(=O)[nH]c3ccccc32)CC1)c1ccc(F)cc1 | False |
| CN(C)c1ccc2nc3ccc(=O)cc-3sc2c1 | False |
| COc1cc2cn3c4ccc(O)cc4[nH]c(=O)c3c2cc1OC | True |
| CCN(CC)CCNCC(=O)Oc1ccc(/C=C/C(=O)CC(=O)/C=C/c2ccc(OC(=O)CNCCN(CC)CC)c(OC)c2)cc1OC | False |
| COc1ccc(CNc2c3ccccc3nc3ccccc23)cc1OC | False |
| COC(=O)[C@@H](NC(=O)[C@@H](OC)[C@@H]1Cc2cc3cc(OC4CC(OC5CC(O)C(O)C(C)O5)C(O)C(C)O4)c(C)c(O)c3c(O)c2C(=O)[C@H]1OC1CC(OC2CC(OC3CC(C)(O)C(O)C(C)O3)C(O)C(C)O2)C(O)C(C)O1)C(C)C (stereo partly specified) | True |

====

Test system: MDA-N
Test: NCI tumour cell line growth inhibition, 48 h

| Compound | TGI |
| --- | --- |
| O=C(O)Cc1c(O)ccc2ccccc12 | > 100 µM |
| CN(Nc1cc(=O)[nH]c(=O)[nH]1)c1ccccc1 | > 100 µM |
| Cc1cc(C)cc(C(=N)c2ccccc2Cc2cccc3ccccc23)c1 | 54.2 µM |
| Cn1ccc(C(=O)NCCOCCNC(=O)c2ccn(C)c(=O)c2O)c(O)c1=O | > 100 µM |
| COc1ccc2c(c1)CCc1c-2[nH]c2ccc(OC)cc12 | > 100 µM |
| COC(=O)C1=C(C)NC(C)=C(C(=O)OC)C1c1ccc(/[N+]([O-])=C/c2ccccc2)cc1 | > 100 µM |
| O/N=C\c1c(O)ccc2ccccc12 | > 100 µM |
| NC(N)=N/N=C/c1cc(Cl)cc(Cl)c1O | > 100 µM |
| CN1CCOC1(C)CO (centres undefined) | > 100 µM |
| COn1cc(C=O)c2ccccc21 | 62.7 µM |
| CSC1=C(SC)SC(=C2SC3=C(SC(=C4SCCS4)S3)S2)S1 | > 100 µM |
| N#CSc1nc[nH]c1C(N)=O | > 100 µM |
| O=C(O)c1ccc(NNc2cc(=O)[nH]c(=O)[nH]2)cc1 | > 100 µM |
| c1cc(-c2ncc(-c3ccc4c(c3)CCCO4)o2)ccn1 | 23.1 µM |
| CC1(C#N)CC(C)(C)C(/C=C2/CC(C)(C)C(/C=C3/OC(=N)CC3(C)C)=N2)=N1 (centres undefined) | 92.1 µM |
| C=CCN1C[C@H](C)N([C@H](c2ccc(C(=O)N(CC)CCO)cc2)c2cccc(OC)c2)C[C@H]1C | > 100 µM |
| CC(C)=CCS(=O)c1ccccc1NC1=CC(=O)CC(C)(C)C1 (centres undefined) | > 100 µM |
| C[C@H]1[C@H](C)CC[C@]2(C)CC[C@]3(C)C(=C[C@@H](O)[C@@H]4[C@@]5(C)[C@H](O)[C@@H](O)[C@H](O)C(C)(C)[C@@H]5CC[C@]43C)[C@H]12 | > 100 µM |
| CC(=O)c1csc2c1C(=O)c1scc(C(C)=O)c1C2=O | 0.319 µM |
| O=C(C(=O)N1CCc2ccccc21)c1c[nH]c2ccccc12 | > 10 µM |
| C[C@]12CCC(=O)C=C1CC[C@@H]1C2CC[C@]2(C)c3nn(-c4ccc(F)cc4)nc3CC12 (some centres undefined) | > 100 µM |
| COc1cccc(OC)c1/C=C1\OC(=O)c2cccc(OC)c21 | 3.32 µM |
| CCN(CC)/C(Cl)=C(Cl)\C(=C1\Nc2ccc(OC)cc21)[N+](=O)[O-] | > 100 µM |
| O=C(c1ccccc1)c1c(-c2ccccc2)[nH]n(-c2ccc([N+](=O)[O-])cc2)c(=O)c1=O | > 100 µM |
| COc1ccnc2c1C(=O)c1nc3ccccc3c3ccnc-2c13 | 0.904 µM |
| CN(C)C(=O)NCCN1CCCCCc2ccccc21 | > 100 µM |
| COc1ccc(C[N+]23C(CC[C@H]2c2ccccc2)CC[C@H]3c2ccccc2)cc1 (some centres undefined) | 65.4 µM |
| N#CC1Nc2ccccc2[C@@H](O)C1O (some centres undefined) | > 100 µM |
| CC(=O)OC1CC2c3cccc4c3C(CC2N(C)C1=O)CN4C(=O)c1ccccc1 (centres undefined) | 77.1 µM |
| CCC1OC2C(CC=C(C)C)=C3OC(C)(O)C(C)(CC)C(OC(=O)c4ccccc4)C3=C3OC(=O)C=C1C32 (centres undefined) | 44.4 µM |
| COc1cc2c(cc1OC)C13CCN4CC5=CCOC6CC(=O)N2C1C6C5CC43O (centres undefined) | > 100 µM |
| CC1=NC(=Cc2ccc(O)cc2)C(=O)N1n1c(-c2ccccc2)nc2ccccc2c1=O | > 100 µM |
| Cc1cccc2c1[C@]13OC(C)[C@]4(C)CC5OC(=O)[C@@]1(C)[C@@H]5[C@]34C(=O)O2 (some centres undefined) | > 100 µM |
| Clc1ccc(Cl)c(Nc2ccnc(SCc3ccccc3)n2)c1 | > 100 µM |
